B1: glmS ribozyme (parent)
chain: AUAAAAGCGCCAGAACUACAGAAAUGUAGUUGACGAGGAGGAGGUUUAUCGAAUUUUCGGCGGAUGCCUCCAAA

# Variants of: B1
# Test summary: KM; higher = weaker cofactor use; RNA array
# Test context: with glucosamine-6-phosphate
# reported KM; entries follow
Assay metric: KM (µM)

    mutant_designation  recorded_number
 0           G13C G66A             1630
 1           G32A G66A             6290
 2      A12C G66U C70U             1190
 3           U31C U45C             4690
 4           U31A G41U              430
 5           C58U C71U             3200
 6           U31G G37C             1380
 7           G37A U45G             2870
 8           A39U G40C             1850
 9           U56A U57A             3720
10           U55G C68G              345
11           G40A G41U             1160
12                C10A              559
13           U54A G59A             4220
14           G43C C68U             1370
15           A14U C58A             2220
16           G41C A64G             1760
17                G59A             1670
18            A6C C68U              534
19      A15U U31G U47A             5260
20           U49G A53G             1440
21           U47G C50U              433
22                G13U             3670
23           C70U C71A              607
24           G41U C71G             1780
25           G66C C68U             1890
26           G37A A39U             3280
27           C16U U30A             2310
28           A12C G43U             1200
29           U46A U56A             1800
30           A12C U31A             4520
31           C10U A15G             4700
32           C16G U56A             2810
33           G29U U55C             3740
34           G13U C16G             5170
35           C11U C58G              188
36           C16A G66A             4130
37           A14C A53U             2930
38            A6U A14G             2280
39           G44A U54C             8260
40           C58A C67U             1370
41           G26U U65G             4570
42           A14G A33U             8710
43           A48C C67U             4380
44           C11U U56C             2260
45           C16G C71A             2900
46           G40U U47A             1680
47           A15U G32U             6790
48           A39G G44U             6340
49           U56G A64G             2680
50                A15U             1950
51      A14U U31G A39C             4360
52           C16A U45G             2200
53           G44U U56C             4890
54           A12C U65C             1950
55           G40A C70U              165
56           A53C G66C             2510
57      C11U G40U C70U             1100
58           A39U A42U             1400
59           U45G U65G             2200
60            A6C G66A             3320
61           U54A C70A             42.6
62           C16A A64G             2060
63           A14G U45G             3450
64                A52G             4410
65           U31C U54A             2980
66           A64G G66U             1210
67           A12C A42U             1230
68                G59U             1210
69                G32C             3460
70                A52U             2960
71           G29C U47C             1730
72       G9U A48C C50G             92.6
73           A14U U47G             1750
74           G29A A53G             3380
75           G37A A52U             6790
76           U31A U56C             2630
77           U45A U56G             3390
78            A6C C70U             1350
79           G40C C70G              973
80           C10U A12C             3450
81           A14G U47C             1160
82           A53C C70G              438
83           G38A A52C              129
84           U30A U31C             4300
85           A14C U30A             2710
86           U65C C67U             2040
87                C11U             1800
88           U55A U65C             1160
89           U47C U56G             1580
90           U30G A53C             2690
